- ASSAY_INFO: Cytotoxicity against HEK293T/17 cells by MTT assay
- Format: toxicity, cell-based
- SETTINGS: human
REPORTED_PROPERTY: IC50 (µg/mL)
State the answer as a number, implicitly in µg/mL.

| CHEMICAL_STRUCTURE | IC50 [µg/mL] |
| --- | --- |
| C[C@@H]1C[C@H]2C(=O)OC[C@H](NC(=O)[C@H](Cc3cc(F)cc(F)c3)NC(=O)CCC3CCCCC3)C(=O)N3CCC[C@H]3C(=O)N3CCCC[C@H]3C(=O)N[C@@H](C)C(=O)N2C1 | 3.7 |

Query :: Could you share which IC50 value was measured for "O=C1C2=C(CCN(Cc3ccccc3)C2)N2CCN=C2N1Cc1ccc(C(F)(F)F)cc1" ?
Result :: 0.002

----------
Quick list: MIC per entry.
- Test system: Staphylococcus aureus
- ASSAY_INFO: microbe, parasite or virus in culture
- Format: functional
- SETTINGS: time 18 hrs
- Description: Antibacterial activity against multidrug-resistant Staphylococcus aureus clinical isolate XJ051 assessed as inhibition of visible growth of bacteria incubated for 18 hrs by absorbance based analysis

| MOLECULE | REPORTED_PROPERTY | RESULT |
| --- | --- | --- |
| Cc1onc(-c2ccccc2)c1C(=O)N[C@@H]1C(=O)N2[C@@H]1SC(C)(C)[C@@H]2C(=O)O [OXACILLIN] | MIC | > 128 µg/mL |
| CC[C@H]1OC(=O)[C@H](C)[C@@H](O[C@H]2C[C@@](C)(OC)[C@@H](O)[C@H](C)O2)[C@H](C)[C@@H](O[C@@H]2O[C@H](C)C[C@H](N(C)C)[C@H]2O)[C@](C)(O)C[C@@H](C)C(=O)[C@H](C)[C@@H](O)[C@]1(C)O [ERYTHROMYCIN] | MIC | 8 µg/mL |
| CCC[C@@H]1C[C@@H](C(=O)N[C@@H]([C@H]2O[C@H](SC)[C@H](O)[C@@H](O)[C@H]2O)[C@H](C)Cl)N(C)C1 [CLINDAMYCIN] | MIC | 0.016 µg/mL |
| CC[C@H](C)[C@H]1C(=O)N(Cc2ccc(OC)c3ccccc23)C[C@@H]2N(C(=O)NCCCC(F)(F)F)CCC(=O)N12 | MIC | 0.03 µg/mL |
| CCn1cc(C(=O)O)c(=O)c2cc(F)c(N3CCNCC3)cc21 [NORFLOXACIN] | MIC | > 128 µg/mL |

Query :: Fill blank: measured MIC of the molecule "CC[C@H](C)[C@H]1C(=O)N([C@H](C)c2cccc3ccccc23)C[C@@H]2N(C(=O)NCCCC(F)(F)F)CCC(=O)N12" is ____.
Result :: 1 µg/mL

----------
As shown below, each of these molecules has a reported EC50 value.
- SYSTEM_NAME: ATP-dependent Clp protease proteolytic subunit (Staphylococcus aureus (strain NCTC 8325), UniProt Q2G036)
- Sequence (Q2G036 whole entry): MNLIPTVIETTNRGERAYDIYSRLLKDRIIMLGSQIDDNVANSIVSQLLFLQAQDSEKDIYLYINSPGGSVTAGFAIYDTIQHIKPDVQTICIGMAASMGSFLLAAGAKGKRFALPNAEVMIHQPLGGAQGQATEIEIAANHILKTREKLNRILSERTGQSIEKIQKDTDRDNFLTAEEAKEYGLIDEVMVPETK
- ASSAY_INFO: Agonist activity at Staphylococcus aureus ClpP extracted from Escherichia coli BL21 (DE3) cells using alpha-casein as substrate assessed as substrate hydrolysis preincubated for 15 mins followed by substrate addition and measured after 2 hrs by SDS-PAGE analysis

| MOLECULE | REPORTED_PROPERTY | RESULT |
| --- | --- | --- |
| [N-]=[N+]=NCCC[C@H]1C(=O)N(Cc2cccc3ccccc23)C[C@@H]2N(C(=O)NCCCC(F)(F)F)CCC(=O)N21 | EC50 | 1500 nM |
| CC[C@H](C)[C@H]1C(=O)N(Cc2cccc3ccccc23)C[C@@H]2N(C(=O)NCCC3CCOC3)CCC(=O)N12 (some centres not stated) | EC50 | 6900 nM |
| CSCC[C@H]1C(=O)N(Cc2cccc3ccccc23)C[C@@H]2N(C(=O)NCc3ccccc3)CCC(=O)N21 | EC50 | 3100 nM |
| CC[C@H](C)[C@H]1C(=O)N(Cc2cccc3ccccc23)C[C@@H]2N(C(=O)NCCCC(F)(F)F)CCC(=O)N12 | EC50 | 720 nM |
| CC(C)C[C@H]1C(=O)N(Cc2cccc3ccccc23)C[C@@H]2N(C(=O)NCc3ccccc3)CCC(=O)N21 | EC50 | 1200 nM |
| CC[C@H](C)[C@H]1C(=O)N(Cc2ccc(F)c3ccccc23)C[C@@H]2N(C(=O)NCCCC(F)(F)F)CCC(=O)N12 | EC50 | 1010 nM |

With those in mind, consider the next molecule.
Query :: Entry "O=C1[C@H](CC2CCCC2)N2C(=O)CCN(C(=O)NCCCC(F)(F)F)[C@H]2CN1Cc1cccc2ccccc12" : reported EC50 = ?
Result :: 2200 nM

----------
- SYSTEM_NAME: ATP-dependent Clp protease proteolytic subunit (Staphylococcus aureus (strain NCTC 8325))
- ASSAY_INFO: Agonist activity at Staphylococcus aureus ClpP extracted from Escherichia coli BL21 (DE3) cells using alpha-casein as substrate assessed as substrate hydrolysis preincubated for 15 mins followed by substrate addition and measured after 2 hrs by SDS-PAGE analysis
REPORTED_PROPERTY: pEC50
Scale note: pEC50 = -log10(concentration in M).

Illustrative cases are given below, each with its answer.
| COMPOUND | pEC50 |
| --- | --- |
| CC[C@H](C)[C@H]1C(=O)N([C@H](C)c2cccc3ccccc23)C[C@@H]2N(C(=O)NCCCC(F)(F)F)CCC(=O)N12 | 5.92 |
| CC[C@H](C)[C@H]1C(=O)N(Cc2cccc3ccccc23)C[C@@H]2N(C(=O)NCCCCCl)CCC(=O)N12 | 5.96 |
| O=C1C2=C(CCN(Cc3ccccc3)C2)N2CCN=C2N1Cc1ccc(C(F)(F)F)cc1 | 5.92 |

Query :: Value lookup for pEC50; key = "CCCNC(=O)N1CCC(=O)N2[C@@H]([C@@H](C)CC)C(=O)N(Cc3cccc4ccccc34)C[C@H]12"
Result :: 5.66

Query :: Repeat with "O=C1[C@H](CC2CCCCC2)N2C(=O)CCN(C(=O)NCCCC(F)(F)F)[C@H]2CN1Cc1cccc2ccccc12"
Result :: 5.80

Query :: Would you mind doing "CC[C@H](C)[C@H]1C(=O)N(Cc2cccc3ccccc23)C[C@@H]2N(C(=O)NCCC(C)=O)CCC(=O)N12" as well?
Result :: 4.58

Query :: Check CCC(C)CNC(=O)N1CCC(=O)N2[C@@H]([C@@H](C)CC)C(=O)N(Cc3cccc4ccccc34)C[C@H]12 (stereo not given in full) too.
Result :: 5.74

Query :: Also check "CC[C@H](C)[C@H]1C(=O)N(Cc2cccc3ccccc23)C[C@@H]2N(C(=O)NCC(C)(C)C)CCC(=O)N12"
Result :: 5.31

Query :: Then what about the compound "CC[C@H](C)[C@H]1C(=O)N(Cc2cccc3ccccc23)C[C@@H]2N(C(=O)NCCCCl)CCC(=O)N12" ?
Result :: 5.89

Query :: Repeat with "CC[C@@H](C)[C@H]1C(=O)N(Cc2cccc3ccccc23)C[C@@H]2N(C(=O)NCc3ccc(Br)cc3)CCC(=O)N12"
Result :: 5.92

Query :: What do you have for "CC[C@H](C)[C@H]1C(=O)N(Cc2ccc(C)c3ccccc23)C[C@@H]2N(C(=O)NCCCC(F)(F)F)CCC(=O)N12" ?
Result :: 5.82

----------
Measured MIC values are reported for all entries that follow.
- System: Staphylococcus aureus
- ASSAY_INFO: microbe, parasite or virus in culture
- Format: functional
- SETTINGS: NRS-1, time 18 hrs
- Description: Antibacterial activity against methicillin-resistant Staphylococcus aureus NRS-1 assessed as inhibition of visible growth of bacteria incubated for 18 hrs by absorbance based analysis
Give just the numeric value; µg/mL need not be written.

Here are 6 molecules together with their reported answers.
| CHEMICAL_STRUCTURE | REPORTED_PROPERTY | VALUE_UNIT | READOUT_NUMBER |
| --- | --- | --- | --- |
| CCC[C@@H]1C[C@@H](C(=O)N[C@@H]([C@H]2O[C@H](SC)[C@H](O)[C@@H](O)[C@H]2O)[C@H](C)Cl)N(C)C1 | MIC | µg/mL | 64 |
| CCn1cc(C(=O)O)c(=O)c2cc(F)c(N3CCNCC3)cc21 | MIC | µg/mL | 64 |
| Cc1onc(-c2ccccc2)c1C(=O)N[C@@H]1C(=O)N2[C@@H]1SC(C)(C)[C@@H]2C(=O)O | MIC | µg/mL | 64 |
| O=C1C2=C(CCN(Cc3ccccc3)C2)N2CCN=C2N1Cc1ccc(C(F)(F)F)cc1 | MIC | µg/mL | 1 |
| CC[C@H](C)[C@H]1C(=O)N(Cc2ccc(OC)c3ccccc23)C[C@@H]2N(C(=O)NCCCC(F)(F)F)CCC(=O)N12 | MIC | µg/mL | 0.13 |
| CC1(C)S[C@@H]2[C@H](NC(=O)[C@H](N)c3ccccc3)C(=O)N2[C@H]1C(=O)O | MIC | µg/mL | 32 |

--- query ---
Query :: Fill blank: measured MIC of the molecule "CC[C@H](C)[C@H]1C(=O)N([C@H](C)c2cccc3ccccc23)C[C@@H]2N(C(=O)NCCCC(F)(F)F)CCC(=O)N12" is ____.
Result :: 2
